- assay text: Selectivity index of HIV-1 and HIV-2 with respect to CEM cells
- Type: functional, CCRF-CEM
Quick reference for Selectivity index among some molecules
Just the number, please, no unit attached.

Here are 3 molecules together with their reported answers.
The recorded Selectivity index for Cc1cn(C2C/C(=N\O)C(CO)O2)c(=O)[nH]c1=O (stereo unspecified) is 28

The recorded Selectivity index for CC(=O)O/N=C1/C[C@H](n2cc(C)c(=O)[nH]c2=O)O[C@@H]1CO.CC(=O)O/N=C1\C[C@H](n2cc(C)c(=O)[nH]c2=O)O[C@@H]1CO (racemic) is 130

The recorded Selectivity index for Cc1cn(C2C/C(=[N+](/[O-])O)C(CO)O2)c(=O)[nH]c1=O (stereo unspecified) is 25

Turning now to a further record.
The recorded Selectivity index for CO/N=C1/C[C@H](n2cc(C)c(=O)[nH]c2=O)O[C@@H]1CO.CO/N=C1\C[C@H](n2cc(C)c(=O)[nH]c2=O)O[C@@H]1CO is 8
